- system_tested: T1, human glucagon receptor (human, UniProt P47871 26-477)
- T1 construct: whole, on cells; cAMP assay: transfected HEK293 cells
- measurement_protocol: SPA competition vs 125I-glucagon, receptor membranes
Ends that are not written are not given here.
endpoint: pIC50
Keep in mind that pIC50 stands for -log10 of concentration in molar terms.

SQLTFTSEYSKYLDSRRAQDFVQWLMNT-NH2 (also called Cmpd) [[desHis^1, Leu^4, Glu^9] Glucagon-NH2]; 7.43

Would you mind telling me what pIC50 value was observed for SQGTTSDYSKYLDSRRAQDFVQWLMNT-NH2 (His1 and Phe6 deleted; also called Cmpd) [[desHis^1, desPhe^6] Glucagon-NH2] ?
6.89

What about this binder? SQGTFTSEYSKYLDSRRAQDFVQFLLNT-NH2 [[desHis^1, Glu^9, Phe^25, Leu^27]Glucagon-NH2]
7.90
